- ASSAY TARGET: Arachidonate 5-lipoxygenase-activating protein (Homo sapiens)
- Sequence (P20292 whole entry): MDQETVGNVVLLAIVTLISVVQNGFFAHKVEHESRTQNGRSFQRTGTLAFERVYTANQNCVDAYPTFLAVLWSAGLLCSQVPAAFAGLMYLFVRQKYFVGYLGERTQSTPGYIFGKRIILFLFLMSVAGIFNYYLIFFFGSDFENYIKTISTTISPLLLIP
- METHOD DESCRIPTION: Homogeneous Time Resolved Fluorescence Assay: The assay below is used to test the modulatory activity of compounds against FLAP. Human and mouse FLAP-encoding DNA was amplified by polymerase chain reaction and cloned into pFastBacl (Invitrogen) with a NH2-terminal 6-His tag for expression in Spodoptera frugiperda (Sf-9) cells. FLAP-containing membranes were prepared as was a FITC-labeled FLAP …
- Description: Homogeneous Time Resolved Fluorescence Assay: The assay below is used to test the modulatory activity of compounds against FLAP. Human and mouse FLAP-encoding DNA was amplified by polymerase chain reaction and cloned into pFastBacl (Invitrogen) with a NH2-terminal 6-His tag for expression in Spodoptera frugiperda (Sf-9) cells. FLAP-containing membranes were prepared as was a FITC-labeled FLAP modulator [5-[({[2-(2-{3-[3-(tert-Butylsulfanyl)-1-(4-chlorobenzyl)-5-(quinolin-2-ylmethoxy)-1H-indol-2-yl]-2,2-dimethylpropanoyl}hydrazino)-2-oxoethyl]sulfanyl}acetyl)amino]-2-(6-hydroxy-3-oxo-3H-xanthen-9-yl)benzoic acid]. The FLAP binding assay is performed in HTRF format (homogeneous time resolved fluorescence).
RESULT TYPE: pKi
The scale used: pKi is minus the common logarithm of the concentration in molar units.

Prompt line: Which pKi reading was recorded for the compound `C[C@@H]([C@@H](O)c1ccccc1)N(C)S(=O)(=O)c1ccccc1-c1ccc(-c2ccc(N)nc2)c(F)c1` ?
Response line: 8.49
